Where do these numbers come from? They come from ChEMBL document CHEMBL2417436.

- experimental_system: Adenosine receptor A1 (Homo sapiens) (UniProt P30542)
- Sequence (whole entry): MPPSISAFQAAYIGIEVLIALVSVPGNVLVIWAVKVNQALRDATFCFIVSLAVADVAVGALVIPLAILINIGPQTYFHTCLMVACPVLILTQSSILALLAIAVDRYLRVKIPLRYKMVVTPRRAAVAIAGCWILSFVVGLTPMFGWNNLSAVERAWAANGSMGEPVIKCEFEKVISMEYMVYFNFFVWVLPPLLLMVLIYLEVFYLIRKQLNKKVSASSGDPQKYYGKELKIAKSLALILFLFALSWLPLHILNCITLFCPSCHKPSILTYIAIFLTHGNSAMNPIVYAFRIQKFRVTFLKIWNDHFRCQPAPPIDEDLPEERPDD
- procedure_text: Allosteric enhancement of human adenosine A1 receptor expressed in CHO cells assessed as increase of CCPA Ki at 10 uM after 90 mins by [3H]DPCPX radioligand binding assay
- Assay type: cell-based
Classification field: 1.0 = fold change (FC) at or over 3; 0.0 = fold change (FC) under 3.

# molecule, experimental_system, assigned_category
rows = [
    ("Nc1sc(-c2ccccc2)c(CN2CCCCC2)c1C(=O)c1ccc(Cl)cc1", "Adenosine receptor A1 (Homo sapiens) (UniProt P30542)", 0.0),
    ("Nc1scc(CN2CCC3(CC2)Oc2ccccc2O3)c1C(=O)c1ccc(Cl)cc1", "Adenosine receptor A1 (Homo sapiens) (UniProt P30542)", 1.0),
    ("Cc1ccc2c(c1)CC1CN(Cc3csc(N)c3C(=O)c3ccc(Cl)cc3)CCN21 (stereo unspecified)", "Adenosine receptor A1 (Homo sapiens) (UniProt P30542)", 0.0),
    ("Nc1scc(COc2ccc(F)cc2)c1C(=O)c1ccc(Cl)cc1", "Adenosine receptor A1 (Homo sapiens) (UniProt P30542)", 0.0),
    ("CC(C)N(Cc1c(-c2ccccc2)sc(N)c1C(=O)c1ccc(Cl)cc1)C(C)C", "Adenosine receptor A1 (Homo sapiens) (UniProt P30542)", 0.0),
    ("CN(Cc1csc(N)c1C(=O)c1ccc(Cl)cc1)c1ccccc1", "Adenosine receptor A1 (Homo sapiens) (UniProt P30542)", 0.0),
    ("Cn1c2c(c3cc(Cl)ccc31)CN(Cc1csc(N)c1C(=O)c1ccc(Cl)cc1)CC2", "Adenosine receptor A1 (Homo sapiens) (UniProt P30542)", 0.0),
    ("Nc1scc(CN2CCn3c(cc4cc(Cl)ccc43)C2)c1C(=O)c1ccc(Cl)cc1", "Adenosine receptor A1 (Homo sapiens) (UniProt P30542)", 1.0),
    ("CC(C)N(Cc1csc(N)c1C(=O)c1ccc(Cl)cc1)C(C)C", "Adenosine receptor A1 (Homo sapiens) (UniProt P30542)", 0.0),
    ("CC(C)(C)c1ccc2c(c1)OC1(CCN(Cc3csc(N)c3C(=O)c3ccc(Cl)cc3)CC1)O2", "Adenosine receptor A1 (Homo sapiens) (UniProt P30542)", 1.0),
    ("CCCN(CCC)Cc1csc(N)c1C(=O)c1ccc(Cl)cc1", "Adenosine receptor A1 (Homo sapiens) (UniProt P30542)", 0.0),
    ("Nc1scc(CN2CCn3c(cc4ccccc43)C2)c1C(=O)c1ccc(Cl)cc1", "Adenosine receptor A1 (Homo sapiens) (UniProt P30542)", 1.0),
    ("CN(Cc1csc(N)c1C(=O)c1ccc(Cl)cc1)c1ccc(C(F)(F)F)cc1", "Adenosine receptor A1 (Homo sapiens) (UniProt P30542)", 0.0),
    ("Nc1scc(COc2ccccc2)c1C(=O)c1ccc(Cl)cc1", "Adenosine receptor A1 (Homo sapiens) (UniProt P30542)", 0.0),
    ("Cn1c2c(c3ccccc31)CN(Cc1csc(N)c1C(=O)c1ccc(Cl)cc1)CC2", "Adenosine receptor A1 (Homo sapiens) (UniProt P30542)", 0.0),
    ("Cc1cccc2c1OC1(CCN(Cc3csc(N)c3C(=O)c3ccc(Cl)cc3)CC1)O2", "Adenosine receptor A1 (Homo sapiens) (UniProt P30542)", 1.0),
    ("Cc1ccc2c(c1)OC1(CCN(Cc3csc(N)c3C(=O)c3ccc(Cl)cc3)CC1)O2", "Adenosine receptor A1 (Homo sapiens) (UniProt P30542)", 1.0),
    ("CCCCN(C)Cc1c(-c2ccccc2)sc(N)c1C(=O)c1ccc(Cl)cc1", "Adenosine receptor A1 (Homo sapiens) (UniProt P30542)", 0.0),
    ("CN(Cc1csc(N)c1C(=O)c1ccc(Cl)cc1)c1ccc(F)cc1", "Adenosine receptor A1 (Homo sapiens) (UniProt P30542)", 1.0),
    ("Cc1ccc(OCc2csc(N)c2C(=O)c2ccc(Cl)cc2)cc1", "Adenosine receptor A1 (Homo sapiens) (UniProt P30542)", 0.0),
    ("COc1ccc2c(c1)cc1n2CCN(Cc2csc(N)c2C(=O)c2ccc(Cl)cc2)C1", "Adenosine receptor A1 (Homo sapiens) (UniProt P30542)", 1.0),
]

----------
- experimental_system: Adenosine receptor A3 (Homo sapiens)
- Sequence (whole entry): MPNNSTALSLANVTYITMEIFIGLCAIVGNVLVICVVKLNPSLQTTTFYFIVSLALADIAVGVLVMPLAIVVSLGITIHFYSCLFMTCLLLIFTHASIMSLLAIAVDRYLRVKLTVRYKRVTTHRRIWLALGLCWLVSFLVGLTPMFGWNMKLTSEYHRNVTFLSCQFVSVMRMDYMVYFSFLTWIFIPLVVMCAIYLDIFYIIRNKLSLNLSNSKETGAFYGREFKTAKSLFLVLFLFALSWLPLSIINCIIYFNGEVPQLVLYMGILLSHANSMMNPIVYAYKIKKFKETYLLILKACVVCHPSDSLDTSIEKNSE
- procedure_text: Displacement of [3H]MRE-3008-F20 from human adenosine A3 receptor expressed in CHO cells at 10 uM after 120 mins by scintillation counting
observable: inhibition (%)

# smiles_notation, experimental_system, observed_value
rows = [
    ("Nc1sc(-c2ccccc2)c(CN2CCCCC2)c1C(=O)c1ccc(Cl)cc1", "Adenosine receptor A3 (Homo sapiens)", 7),
    ("CCN(CC)Cc1csc(N)c1C(=O)c1ccc(Cl)cc1", "Adenosine receptor A3 (Homo sapiens)", 2),
    ("CN(Cc1csc(N)c1C(=O)c1ccc(Cl)cc1)c1ccccc1", "Adenosine receptor A3 (Homo sapiens)", 9),
    ("Nc1scc(CN2CCn3c(cc4cc(Cl)ccc43)C2)c1C(=O)c1ccc(Cl)cc1", "Adenosine receptor A3 (Homo sapiens)", 4),
    ("Cc1cccc2c1OC1(CCN(Cc3csc(N)c3C(=O)c3ccc(Cl)cc3)CC1)O2", "Adenosine receptor A3 (Homo sapiens)", 5),
    ("Nc1scc(COc2ccccc2)c1C(=O)c1ccc(Cl)cc1", "Adenosine receptor A3 (Homo sapiens)", 2),
    ("CN(C)Cc1c(-c2ccccc2)sc(N)c1C(=O)c1ccc(Cl)cc1", "Adenosine receptor A3 (Homo sapiens)", 2),
    ("Nc1scc(CN2CCc3ccccc3C2)c1C(=O)c1ccc(Cl)cc1", "Adenosine receptor A3 (Homo sapiens)", 1),
    ("Nc1scc(CN2CCn3c(cc4cc(F)ccc43)C2)c1C(=O)c1ccc(Cl)cc1", "Adenosine receptor A3 (Homo sapiens)", 5),
    ("C=CCN(CC=C)Cc1c(Br)sc(N)c1C(=O)c1ccc(Cl)cc1", "Adenosine receptor A3 (Homo sapiens)", 8),
    ("Nc1scc(CN2CCn3c(cc4ccccc43)C2)c1C(=O)c1ccc(Cl)cc1", "Adenosine receptor A3 (Homo sapiens)", 3),
    ("Nc1scc(CSc2ccccc2)c1C(=O)c1ccc(Cl)cc1", "Adenosine receptor A3 (Homo sapiens)", 5),
    ("CC(C)(C)c1ccc2c(c1)OC1(CCN(Cc3csc(N)c3C(=O)c3ccc(Cl)cc3)CC1)O2", "Adenosine receptor A3 (Homo sapiens)", 12),
    ("Cn1c2c(c3cc(Cl)ccc31)CN(Cc1csc(N)c1C(=O)c1ccc(Cl)cc1)CC2", "Adenosine receptor A3 (Homo sapiens)", 1),
    ("CCCN(CCC)Cc1c(-c2ccccc2)sc(N)c1C(=O)c1ccc(Cl)cc1", "Adenosine receptor A3 (Homo sapiens)", 11),
    ("CC(C)N(Cc1csc(N)c1C(=O)c1ccc(Cl)cc1)C(C)C", "Adenosine receptor A3 (Homo sapiens)", 3),
    ("Nc1scc(COc2ccc(F)cc2)c1C(=O)c1ccc(Cl)cc1", "Adenosine receptor A3 (Homo sapiens)", 8),
    ("COc1ccc2c(c1)cc1n2CCN(Cc2csc(N)c2C(=O)c2ccc(Cl)cc2)C1", "Adenosine receptor A3 (Homo sapiens)", 6),
    ("Nc1scc(CN2CCC3(CC2)Oc2cccc(F)c2O3)c1C(=O)c1ccc(Cl)cc1", "Adenosine receptor A3 (Homo sapiens)", 7),
    ("Nc1sc(-c2ccccc2)c(CN(C2CCCCC2)C2CCCCC2)c1C(=O)c1ccc(Cl)cc1", "Adenosine receptor A3 (Homo sapiens)", 7),
    ("CC(C)N(Cc1c(Br)sc(N)c1C(=O)c1ccc(Cl)cc1)C(C)C", "Adenosine receptor A3 (Homo sapiens)", 3),
    ("CN(Cc1c(-c2ccccc2)sc(N)c1C(=O)c1ccc(Cl)cc1)C(C)(C)C", "Adenosine receptor A3 (Homo sapiens)", 10),
]
